- Tested on: SARS-CoV-2
- TEST SUMMARY: Antiviral activity against SARS-CoV-2 MT007544.1 infected in African green monkey Vero E6 cells pre infected with virus for 1 hrs followed by incubation with cells for 2 hrs and measured after 20 hrs by ELISPOT reader based analysis
- Assay type: functional, organism-based
- TEST PARAMETERS: Severe acute respiratory syndrome coronavirus 2, MT007544.1, Vero C1008
pEC50: −log10 of the molar value.
READOUT LABEL: pEC50

Find the recorded pEC50 belonging to COC(=O)N[C@H](C(=O)N1CC(C)(C)C[C@H]1C(=O)N[C@H](C#N)C[C@@H]1CCNC1=O)C(C)(C)C and report it.
< 4.30

Please do the same for C#C[C@H](C[C@@H]1CCNC1=O)NC(=O)[C@@H]1C[Si](C)(C)CN1C(=O)[C@@H](NC(=O)C(F)(F)F)C(C)(C)C as well.
4.34

Please do the same for C#C[C@H](C[C@@H]1CCNC1=O)NC(=O)[C@@H]1C[Si](C)(C)CN1C(=O)[C@@H](NC(=O)OC)C(C)(C)C as well.
< 4.30

Please do the same for COC(=O)N[C@H](C(=O)N1C[Si](C)(C)C[C@H]1C(=O)N[C@H](C#N)C[C@@H]1CCNC1=O)C(C)(C)C as well.
< 4.30

Please do the same for C#C[C@H](C[C@@H]1CCNC1=O)NC(=O)[C@@H]1CC(C)(C)CN1C(=O)[C@@H](NC(=O)OC)C(C)(C)C as well.
< 4.30

Please do the same for CC(C)(C)[C@H](NC(=O)C(F)(F)F)C(=O)N1C[Si](C)(C)C[C@H]1C(=O)N[C@H](C#N)C[C@@H]1CCNC1=O as well.
4.62

Please do the same for COC(=O)N[C@H](C(=O)N1C[Si](C)(C)C[C@H]1C(=O)N[C@H](C#Cc1ccccc1)C[C@@H]1CCNC1=O)C(C)(C)C as well.
< 4.30

src = ChEMBL document CHEMBL6134869
